- System: Saccharomyces cerevisiae
- MEASUREMENT DESCRIPTION: protein stability index of tFT-peptide fusion (C-terminal peptide) (PSI (0-1 scale)); higher = more stable (slower turnover)
- CONDITION SUMMARY: genetic background: wild type; temperature: 30 C

- SEQUENCE: "KQSKKKTSFTRF [YBL028C C-terminal 12 aa]"
  protein stability index: 0.662
- SEQUENCE: "KNFRNQYSLHPP [YHR095W C-terminal 12 aa]"
  protein stability index: 0.675
- SEQUENCE: "VRYVIIHRHTST [RMD8 C-terminal 12 aa]"
  protein stability index: 0.599
- SEQUENCE: "LAFSGGLANSIA [DSE4 C-terminal 12 aa]"
  protein stability index: 0.677
- SEQUENCE: "WKEDADKNAGHK [OCH1 C-terminal 12 aa]"
  protein stability index: 0.731
- SEQUENCE: "SSDRSAAEKRNT [TYR1 C-terminal 12 aa]"
  protein stability index: 0.673
- SEQUENCE: "RHAASLLGMSTK [VPS17 C-terminal 12 aa]"
  protein stability index: 0.762
- SEQUENCE: "FYVCYQLYHLVF [DPM1 C-terminal 12 aa]"
  protein stability index: 0.347
- SEQUENCE: "ECPSVPPTVRAY [SDH1 C-terminal 12 aa]"
  protein stability index: 0.55
- SEQUENCE: "TQLRYTSRGLYR [ECM30 C-terminal 12 aa]"
  protein stability index: 0.689
- SEQUENCE: "NEDLGLSDIKVE [ZPR1 C-terminal 12 aa]"
  protein stability index: 0.687
- SEQUENCE: "ADVRYPNIDDYL [HCS1 C-terminal 12 aa]"
  protein stability index: 0.713
- SEQUENCE: "KKLAKSGIEFKW [NOP15 C-terminal 12 aa]"
  protein stability index: 0.684
- SEQUENCE: "AMYDKITESQKK [CHD1 C-terminal 12 aa]"
  protein stability index: 0.683
- SEQUENCE: "EWSFASSGYKDD [PPN1 C-terminal 12 aa]"
  protein stability index: 0.794
- SEQUENCE: "YVFIVNHAAEQT [NUP116 C-terminal 12 aa]"
  protein stability index: 0.659
- SEQUENCE: "WAKRAFDGQFVK [DAP2 C-terminal 12 aa]"
  protein stability index: 0.735
- SEQUENCE: "FLDKNKKEQSDS [ECM9 C-terminal 12 aa]"
  protein stability index: 0.771
- SEQUENCE: "NKVDINMEQEKF [UGO1 C-terminal 12 aa]"
  protein stability index: 0.651
- SEQUENCE: "KSVVVRSKEKQS [GAA1 C-terminal 12 aa]"
  protein stability index: 0.441
- SEQUENCE: "EKKKIFKGNKTD [YLR030W C-terminal 12 aa]"
  protein stability index: 0.669
- SEQUENCE: "EADFRKRFPSKV [PRK1 C-terminal 12 aa]"
  protein stability index: 0.669
- SEQUENCE: "LKSLKKNLTRDR [MTF2 C-terminal 12 aa]"
  protein stability index: 0.66
- SEQUENCE: "MTMILSRMSCSA [IRA2 C-terminal 12 aa]"
  protein stability index: 0.609
- SEQUENCE: "DDKPKIPTMLNA [YME1 C-terminal 12 aa]"
  protein stability index: 0.671

---

- Test system: Saccharomyces cerevisiae
- MEASUREMENT DESCRIPTION: protein stability index of tFT-peptide fusion (C-terminal peptide) (PSI (0-1 scale)); higher = more stable (slower turnover)
- CONDITION SUMMARY: genetic background: doa10 deletion; temperature: 30 C

- SEQUENCE: "VPQQWFAETGRC"
  MEASURED ON: "Saccharomyces cerevisiae"
  protein stability index: 0.657
- SEQUENCE: "LLTLILRIFVLN"
  MEASURED ON: "Saccharomyces cerevisiae"
  protein stability index: 0.144
- SEQUENCE: "TFRVRRQKNRNM"
  MEASURED ON: "Saccharomyces cerevisiae"
  protein stability index: 0.0838
